test system: F380Y; assay: modulators of BK channel variants, profiling panel, selectivity assay, cell-based, U2OS BacMam, thallium flux, beta subunits (AID 1259406); conditions: at 30 µM;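 further: initial slope of Thallos dye fluorescence rise after thallium is added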
Please use Condition met for log fold change Tl+ flux under -0.002 and Condition not met for everything else, ties included.

Ask: I wonder whether `O=c1ncc(F)c[nH]1` has log fold change Tl+ flux below -0.002. Can you tell?
Result: Condition met

Ask: Now try `O=C(OCCSc1sccc1[N+](=O)[O-])c1ccc(Cl)cc1` .
Result: Condition met

Ask: Now try `O=C(c1ccc(OCCN2CCCCC2)cc1)c1c(-c2ccc(O)cc2)sc2cc(O)ccc12` .
Result: Condition not met

Ask: Now try `CCc1ccc(C(=O)Nc2cccc(S(N)(=O)=O)c2)cc1` .
Result: Condition met

Ask: Now try `CCSc1n[nH]c(=S)s1` .
Result: Condition met

More entries:
Ask: I wonder whether `Cc1ccc(C(=O)Cn2cc([N+](=O)[O-])nc2C)cc1` has log fold change Tl+ flux below -0.002. Can you tell?
Result: Condition met

Ask: Now try `NC(Cc1ccc(OCc2ncc(C(F)(F)F)cc2Cl)cc1)=NOC(=O)c1ccccc1` .
Result: Condition not met

Ask: Now try O=C(NC1CCSC1)c1ccccc1NS(=O)(=O)c1ccccc1 (stereo unspecified) .
Result: Condition not met

Ask: Now try O=C1c2cc(S(=O)(=O)O)ccc2CCC1S(=O)(=O)O (stereo unspecified) .
Result: Condition not met

Ask: Now try CN1c2ccccc2C(C)(C)C12C=Cc1cc(Br)cc([N+](=O)[O-])c1O2 (stereo unspecified) .
Result: Condition not met

Ask: Now try `CC(C)C[C@H](NC(=O)[C@@H](O)[C@H](N)Cc1ccccc1)C(=O)O` .
Result: Condition met
